system: HT29 colon; experiment: NCI-60 one-dose screen, 48 h (100 = growth as untreated, 0 = no growth, -100 = all killed); conditions: 10 µM unless noted
This is part of a sample that, as a whole, favours compounds with a hit. Of some 83,000 tested, about 20% had one in any assay. The source made the active and inactive calls. The calls were made as follows: active = growth percent below 10; inactive = the rest.
The following molecules are listed with their measured growth values.
metric: growth

In [3]: df
Out[3]:
                                    molecule              readout_value
 0  Cc1cc(C)c(O)c(CNCCCCCCNCc2cc(C)cc(C)c2O)c1            -6.14% (active)
 1              Brc1ccc2c(c1)CN(C1CCCCC1)CO2            103% (inactive)
 2  COc1ccc(-c2ccc(NNC(=O)c3ccc(F)cc3)nn2)cc1OC           59.7% (inactive)
 3   CCN(CC)CCS(=O)(=O)CCNc1ccnc2cc(Cl)ccc12            -21.1% (active)
 4  COc1ccc(-c2cc(-c3ccc(Cl)cc3)nc(SCCCCCCC(=O)NO)n2)cc1           10.8% (inactive)
 5  O=C(C[n+]1ccn(CC(OCc2ccc(Cl)cc2Cl)c2ccc(Cl)cc2Cl)c1)c1ccc(F)cc1 (configuration not stated)            -73.8% (active)
 6  Cc1ccc(Cn2c(O)c(N=NC(=O)c3ccc(S(N)(=O)=O)cc3)c3ccccc32)cc1            111% (inactive)
 7  O=C1/C(=C\c2cccn2Cc2ccccc2)c2ccccc2N1c1c(Cl)cccc1Cl           52.4% (inactive)
 8  CC(C)=CC/C=C(/C)[C@H]1CC[C@]2(C)[C@@H]1CC[C@@H]1[C@@]3(C)CCC(=O)NC(C)(C)[C@@H]3CC[C@]12C  -0.044% [100 µM] (active)
 9                    O=C(O)c1ccccc1C(F)(F)F            107% (inactive)
10  Cn1cc(-c2noc(-c3cn(C)c4ncc(F)cc34)n2)c2ccccc21           66.1% (inactive)
11  O=C1COCCN1c1ccc(Nc2nc(Cl)nc(N3CCOCC3)n2)cc1           89.4% (inactive)
12  NC(=O)CC1C=CCC1 (configuration not stated)           96.3% (inactive)
13  N#Cc1ccc(-c2ccc(COc3ccc(CC4SC(=O)NC4=O)cc3)cc2)cc1 (configuration not stated)            103% (inactive)
14  CCn1cc(-c2ccnc(NCCNS(=O)(=O)c3cccc4ccccc34)c2)c(-c2cccc(O)c2)n1           92.9% (inactive)
15  Cc1cccc(/C=C2\N=C(c3ccccc3)N(c3ccc(S(N)(=O)=O)cc3)C2=O)c1           86.1% (inactive)
16  O=C(NCCCNC(=O)OCc1ccc2cccc(O)c2n1)OCc1ccc2cccc(O)c2n1             17% (inactive)
17  NS(=O)(=O)c1ccc(CCN2C(=O)/C(=C\c3ccccc3)C=C2c2ccc(Cl)cc2)cc1            107% (inactive)
18  C=C(C)[C@@H]1CC[C@]2(C)[C@H](CC[C@@H]3[C@@H]([C@@](C)(O)CCC=C(C)C)CC[C@]32C)[C@@]1(C)CCC(=O)N1CCN(C)CC1   -70.8% [100 µM] (active)
19  COc1ccc(CC(C#N)c2ccc(Cl)cc2)cc1 (configuration not stated)           55.3% (inactive)
20  O=C(CSc1nc2ccc([N+](=O)[O-])cc2[nH]1)Nc1cccc(Cl)c1           21.1% (inactive)
21  COc1ccc(/C=C/C=C\C(=O)c2ccc(-n3ccnc3)cc2)cc1           93.4% (inactive)
